Source: ChEMBL document CHEMBL4765277

TARGET_OR_SYSTEM: Histone deacetylase 2 (Homo sapiens)
Sequence (Q92769 whole entry): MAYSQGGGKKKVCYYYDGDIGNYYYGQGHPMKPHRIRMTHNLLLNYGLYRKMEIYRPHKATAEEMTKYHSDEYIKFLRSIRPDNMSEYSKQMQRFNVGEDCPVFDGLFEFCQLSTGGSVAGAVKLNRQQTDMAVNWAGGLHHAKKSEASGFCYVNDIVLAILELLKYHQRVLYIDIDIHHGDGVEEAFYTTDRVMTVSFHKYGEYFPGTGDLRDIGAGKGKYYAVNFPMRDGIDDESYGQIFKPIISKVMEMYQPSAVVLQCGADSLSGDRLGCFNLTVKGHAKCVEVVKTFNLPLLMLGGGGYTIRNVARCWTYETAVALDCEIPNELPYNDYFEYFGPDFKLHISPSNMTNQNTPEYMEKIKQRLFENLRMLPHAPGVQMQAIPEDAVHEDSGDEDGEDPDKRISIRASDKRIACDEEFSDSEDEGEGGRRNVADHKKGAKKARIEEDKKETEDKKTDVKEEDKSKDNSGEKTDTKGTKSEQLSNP
TEST_DESCRIPTION: Inhibition of recombinant human C-terminal His-tagged HDAC2 (1 to end residues) expressed in sf9 insect cells using Boc-Lys(Ac)-AMC as substrate incubated for 60 mins by fluorescence assay
pIC50: −log10 of the molar value.
PROPERTY_MEASURED: pIC50

Consider the following illustrative entries.
- SMILES_DATA: "COc1cccc(-c2ccc3c(NC(=O)CCCCC(=O)NO)n[nH]c3c2)c1"
  MEASURED_RESULT: 7.21
- SMILES_DATA: "O=C(CCCCCCC(=O)Nc1n[nH]c2cc(-c3ccccc3)ccc12)NO"
  MEASURED_RESULT: 7.88
- SMILES_DATA: "COc1cccc(-c2ccc3c(NC(=O)CCCCCCC(=O)NO)n[nH]c3c2)c1"
  MEASURED_RESULT: 8.41
- SMILES_DATA: "O=C(CCCCCCC(=O)Nc1n[nH]c2cc(-c3ccccc3Cl)ccc12)NO"
  MEASURED_RESULT: 8.28
- SMILES_DATA: "O=C(CCCCCCC(=O)Nc1n[nH]c2cc(-c3ccccc3F)ccc12)NO"
  MEASURED_RESULT: 8.36
- SMILES_DATA: "COc1ccc(F)c(-c2ccc3c(NC(=O)CCCCCCC(=O)NO)n[nH]c3c2)c1"
  MEASURED_RESULT: 8.46
- SMILES_DATA: "O=C(CCCCCCC(=O)Nc1n[nH]c2cc(-c3cccc(C(F)(F)F)c3)ccc12)NO"
  MEASURED_RESULT: 8.30
- SMILES_DATA: "COc1cccc(-c2ccc3c(NC(=O)CCCCCC(=O)NO)n[nH]c3c2)c1"
  MEASURED_RESULT: 7.20

(1) O=C(CCCCCCC(=O)Nc1n[nH]c2cc(-c3cccc(Cl)c3)ccc12)NO
(2) O=C(CCCCCCC(=O)Nc1n[nH]c2cc(-c3ccsc3)ccc12)NO
Exercise: Which gives the smaller pIC50 number: 1 or 2 ? Output the label that corresponds to your choice.
Key: 2
(2: 7.50, 1: 8.40)

* * *

TARGET_OR_SYSTEM: Histone deacetylase 8 (Homo sapiens)
Sequence (Q9BY41 whole entry): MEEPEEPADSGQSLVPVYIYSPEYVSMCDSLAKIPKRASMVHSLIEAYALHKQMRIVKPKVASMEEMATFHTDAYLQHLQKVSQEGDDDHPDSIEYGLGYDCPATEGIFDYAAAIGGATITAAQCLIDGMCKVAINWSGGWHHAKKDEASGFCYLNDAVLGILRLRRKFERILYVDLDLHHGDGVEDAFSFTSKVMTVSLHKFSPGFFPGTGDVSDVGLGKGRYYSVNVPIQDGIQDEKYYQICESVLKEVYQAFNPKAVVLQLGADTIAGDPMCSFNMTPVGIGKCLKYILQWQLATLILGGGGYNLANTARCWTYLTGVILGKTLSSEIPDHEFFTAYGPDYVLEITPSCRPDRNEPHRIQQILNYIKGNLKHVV
TEST_DESCRIPTION: Inhibition of recombinant human full length C-terminal His-tagged HDAC8 expressed in sf9 insect cells using Boc-Lys(TFA)-AM as substrate incubated for 60 mins by fluorescence assay
PROPERTY_MEASURED: IC50 (nM)

// known answers, use as guide
- SMILES_DATA: "COc1ccc(-c2ccc3c(NC(=O)CCCCCCC(=O)NO)n[nH]c3c2)cc1OC"
  TARGET_OR_SYSTEM: "Histone deacetylase 8 (Homo sapiens)"
  IC50 (nM): 3.2
- SMILES_DATA: "O=C(CCCCCCC(=O)Nc1n[nH]c2cc(-c3cccc(Cl)c3)ccc12)NO"
  TARGET_OR_SYSTEM: "Histone deacetylase 8 (Homo sapiens)"
  IC50 (nM): 3.8

(P) O=C(CCCCCCC(=O)Nc1n[nH]c2cc(-c3ccncc3)ccc12)NO
(Q) O=C(CCCCCCC(=O)Nc1n[nH]c2cc(-c3cccc(C(F)(F)F)c3)ccc12)NO
(R) COc1cccc(-c2ccc3c(NC(=O)CCCC(=O)NO)n[nH]c3c2)c1
Exercise: Reorder the items by IC50, least to greatest. Answer format: the labels, in the requested order.
Key: Q, P, R
